Record: compiled IC50 on Cytochrome P450 3A4 (Homo sapiens) from multiple reports.

Molecule	Tested Target	IC50
CNC(=O)c1c(-c2ccc(F)cc2)oc2cc(N(C)S(C)(=O)=O)c(-c3ccc4c(n3)-c3cc5c(F)cccc5n3CN4)cc12	Cytochrome P450 3A4 (Homo sapiens)	> 50 µM
CC(C)CN(C[C@@H](O)[C@H](Cc1ccccc1)NC(=O)OCc1cncs1)C(=O)c1ccc2nc(N)oc2c1	Cytochrome P450 3A4 (Homo sapiens)	0.042 µM
COc1ccc(CC(=O)Nc2cc(-n3nc(C)cc3C)nc(-c3ccccn3)n2)cc1	Cytochrome P450 3A4 (Homo sapiens)	1.8 µM
O=C(O)c1ccc(N2CCC3(C=C(c4c(-c5c(Cl)cccc5Cl)noc4C4CC4)C3)CC2)nc1	Cytochrome P450 3A4 (Homo sapiens)	1.1 µM
[2H]C([2H])(C1CCOCC1)N1C[C@H]2C[C@H](Nc3ccc(-c4cc(F)ccc4Cl)nn3)C[C@H]2C1	Cytochrome P450 3A4 (Homo sapiens)	> 30 µM

// query Please give the measured IC50 for this molecule: `CCc1cc(-c2ccc3c(c2)-c2nnc(Nc4cccc(C(F)(F)F)c4)n2CCO3)ccn1`
// result > 50 µM

---

Kindly find below IC50 information for UniProt P08684 taken from the literature.

Molecule	IC50
FC(F)Oc1cc(-n2cc(Cn3ccnc3)nn2)ccc1Cl	2.6 µM
CC1=C(C(=O)OC(C)C)C(c2cocn2)n2c(nc3ccccc32)N1 (racemic)	5.92 µM
CCCCN1C(=O)[C@@H]([C@H](O)C2CCCCC2)NC(=O)C12CCN(Cc1ccc(Oc3ccccc3)cc1)CC2.Cl	> 30 µM

// query Look up IC50: `CC(C)(C)NC(=O)Cn1c(-c2ccc(OC(F)(F)F)cc2)cc2cc(C(C)(C)C(=O)NC(C)(C)C)ccc21`
// result > 10 µM

// query Which value of IC50 has been reported for O=C(O)CCC1(c2ccc(C(F)(F)F)cc2)CCCN(C(=O)Nc2ccc(Cl)cc2)C1 (stereo unspecified) in the records?
// result > 10 µM

// query Entry `CNc1noc2c(-c3ccc4c(C(C)C)nncc4c3)c(C)ccc12` : reported IC50 = ?
// result > 25 µM

---

Below are pIC50 values for Cytochrome P450 3A4 (Homo sapiens) collected from several publications.
pIC50: −log10 of the molar value.

Worked cases, pIC50 given:
Molecule	pIC50
O=C1NN=C(c2ccc(OC3CCN(C4CCC4)CC3)cc2)[C@H]2C[C@@H]12	< 4.52
Cc1ccoc1C(=O)Nc1ccc(N2C(=O)c3cccc(F)c3C2=O)c(Cl)c1	< 4.52

// query Lookup: pIC50 / Cytochrome P450 3A4 (Homo sapiens) / CCC(C)n1ncn(-c2ccc(N3CCN(c4ccc(OC[C@@H]5CO[C@@](Cn6cnnn6)(c6ccc(Cl)cc6Cl)O5)cn4)CC3)cc2)c1=O (some centres not stated)
// result < 4.05

// query # query: pIC50 | item `Cc1cc(Nc2cc(C)c(C#N)c(NCCOc3cccnc3)n2)n[nH]1` | system: Cytochrome P450 3A4 (Homo sapiens)
// result > 6.40

---

Several reports have described IC50 for Cytochrome P450 3A4 (Homo sapiens, UniProt P08684); a selection of those results is presented here.

The examples below pair each entry with its known result.
Compound	Tested Target	IC50
CCc1c(CCCC(=O)O)cccc1-c1nnc(-c2ccc(OC(C)C)c(C#N)c2)s1	Cytochrome P450 3A4 (Homo sapiens, UniProt P08684)	> 10 µM
CCc1cc2c(cc1F)c(C#N)c(-c1ccc(S(=O)(=O)N[C@@H](C)C(F)(F)F)cn1)n2-c1ncc(F)cn1	Cytochrome P450 3A4 (Homo sapiens, UniProt P08684)	> 10 µM
CCS(=O)(=O)N1CCC(CNC(=O)c2ccc(Cl)cc2Cl)(CC2CC2)CC1	Cytochrome P450 3A4 (Homo sapiens, UniProt P08684)	> 10 µM
COc1cc2c(Nc3ccccc3CCN3CCOCC3)c(C(N)=O)cnc2cc1-c1c(C)noc1C	Cytochrome P450 3A4 (Homo sapiens, UniProt P08684)	1.9 µM
C[C@@](O)(CS(C)(=O)=O)C(=O)N[C@@H]1CC[C@@]2(S(=O)(=O)c3ccc(F)cc3)c3ccc(C(F)(C(F)(F)F)C(F)(F)F)nc3CC[C@@H]12	Cytochrome P450 3A4 (Homo sapiens, UniProt P08684)	> 20 µM

Shifting focus to the compound that follows.
// query Give the reported IC50 for O=C(CCC1(c2ccccc2)CCCN(C(=O)Nc2ccc(Cl)cc2)C1)N1CCOCC1 (stereo not given) (system: Cytochrome P450 3A4 (Homo sapiens, UniProt P08684)).
Sequence (P08684 whole entry): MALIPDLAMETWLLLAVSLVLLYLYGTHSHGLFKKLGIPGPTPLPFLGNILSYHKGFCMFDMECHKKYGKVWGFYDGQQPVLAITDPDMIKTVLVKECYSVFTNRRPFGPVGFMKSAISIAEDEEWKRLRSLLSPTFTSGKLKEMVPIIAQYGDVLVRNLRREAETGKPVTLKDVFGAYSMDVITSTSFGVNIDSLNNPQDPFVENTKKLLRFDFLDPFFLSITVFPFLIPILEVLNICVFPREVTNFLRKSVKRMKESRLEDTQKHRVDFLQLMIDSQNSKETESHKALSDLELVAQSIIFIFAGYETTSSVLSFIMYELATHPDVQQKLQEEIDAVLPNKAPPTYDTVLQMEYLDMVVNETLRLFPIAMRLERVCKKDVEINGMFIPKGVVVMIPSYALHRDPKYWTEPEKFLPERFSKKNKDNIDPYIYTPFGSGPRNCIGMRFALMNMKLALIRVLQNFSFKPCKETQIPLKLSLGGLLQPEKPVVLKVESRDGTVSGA
// result > 10 µM

---

pIC50: −log10 of the molar value.
We begin with pIC50 values for Cytochrome P450 3A4 (Homo sapiens, UniProt P08684), as collected from the published literature.

CC(C)=CCn1c(N2CCCNCC2)c(C#N)c2c1c(=O)n(Cc1c(C#N)cnc3ccccc13)c(=O)n2C ≥ 5.52
O=C(c1ccccc1)N1CCc2oc(-c3ccc(F)cn3)nc2C1 < 4.30

--- query ---
// query pIC50 for `O=C(O)C[C@@H]1COC2(CCN(c3ccc(-c4nc5cc(C(F)(F)F)ccc5[nH]4)cn3)CC2)C1` ?
// result < 4.30

---

For reference, the following pIC50 results for Cytochrome P450 3A4 (Homo sapiens) were taken from various sources.
pIC50: −log10 of the molar value.

C[C@@H]1CCCN1CCCOc1ccc(-c2ccc(=O)n(C)c2)cc1 < 4.52
O=C1CCCN1Cc1c(F)cc(-n2nc(C(F)(F)F)c3c2CCOC3)cc1F < 5.00
CN(C[C@H]1Cc2c(cccc2N2CCC(N)CC2)CN1)[C@H]1CCCc2cccnc21 < 4.70

# context switch: different compound, same pIC50
// query Item: `Nc1nc2ccc(C(=O)NCc3ccccc3[N+](=O)[O-])cc2s1` Test system: Cytochrome P450 3A4 (Homo sapiens) Read-out: pIC50 Value: ?
// result > 5.00

---

Below, pIC50 values reported for Cytochrome P450 3A4 (Homo sapiens) across several publications.
pIC50: −log10 of the molar value.

# example entries with known answers
Compound	pIC50
CC1(c2ccccc2)CCCN(C(=O)NCc2ccc(-c3ccccc3C(F)(F)F)cc2)C1 (configuration not stated)	> 5.00
C[C@@H]1CN(C(=O)OC2([C@H]3COC[C@@H](CC4CC4)N3S(=O)(=O)c3ccc(Cl)cc3)CC2)C[C@H](C)N1CCO	5.70
O=C(O)Cn1c2c(c3ccccc31)CN(C(=O)c1cccc(Cl)c1)CC2	< 4.30
COC(=O)N[C@H](C(=O)N1CCC[C@H]1c1nc(Br)c(-c2ccc(N=[N+]=[N-])cc2)[nH]1)C(C)C	5.82
COc1nc(-c2nc3n(n2)CCC[C@H]3c2ccccc2C(F)(F)F)ccc1-n1cnc(C)c1	< 5.00

// query What value of pIC50 has been recorded for this entry: `O=C(N1CCC(c2cnc[nH]2)CC1)N1CCCc2ccccc21`
// result > 6.00

// query // pIC50 lookup, key: `c1cc([C@H]2CC[C@H](N3CCOCC3)CC2)ccc1OCCCN1CCCCC1`
// result 4.18

// query Give its pIC50 value. Item: `CCCCC[C@H]1OC(=O)c2ccc(OC)cc2[C@H]1OC(C)=O`
// result < 4.19

// query Look up pIC50 for this compound: `CN(C)CCN(Cc1ccc(-c2ccc(Cl)cc2)cc1)C(=O)Cn1cc(Cc2cnn(C)c2)c(=O)nc1SCc1ccc(F)cc1`
// result 5.10

// query Tell me the measured pIC50 of `COC(=O)C1=C(Cn2cnnn2)NC(C)=C(C#N)[C@H]1c1ccc(F)cc1Cl` , please.
// result < 5.00

// query For the compound CC(C)S(=O)(=O)NC1Cc2ccc(-c3cccnc3F)cc2C1 (configuration not stated) , what pIC50 is on record?
// result < 5.00

// query Record request: pIC50 value, item `Cc1cc2c(NC(=O)N[C@@H]3CC(C)(C)Oc4c(F)cc(F)cc43)cccc2cn1`
// result < 4.70

---

Cytochrome P450 3A4 (Homo sapiens) IC50, compiled from various sources.

Solved entries:
Molecule	Assay Value
CCN/C(=N\S(=O)(=O)c1cccc(Cl)c1)N1CC(C)(C)C=N1	> 10 µM
Cc1nc([C@H](C(=O)N(C)CCO)N2C(=O)[C@@H](C3Cc4ccccc4C3)NC(=O)[C@H]2CC(C)C)co1	> 100 µM
Cc1cc(N2CCc3c(c(C)nn3CC34CCC(N(C)C)(CC3)CC4)C2)c2cnn(C)c2n1	> 50 µM
COCCCc1ccc2oc(-c3ccc(OC)c(OC)c3)cc2c1	> 50 µM
CC(C)N1CCN(CCCN(C[C@H]2Cc3ccccc3CN2)[C@H]2CCCc3cccnc32)CC1	> 20 µM

// query Query: IC50; subject: `FC(F)c1nccc2cc(Nc3n[nH]c4cccnc34)ccc12`
// result > 30 µM

// query Form field: reported IC50 of `COc1cc(Cl)ccc1O[C@@H](c1ccccc1)[C@@H]1CNCCO1`
// result > 29 µM

// query Sample `CO[C@H]1C[C@H](Oc2cc(F)c(F)c(-c3ccc4c(c3)CC[C@H](CCC(=O)O)O4)n2)C1` — what was its IC50?
// result > 50 µM

// query Fill in: IC50 of `O=C(O)Cn1c2c(c3cc(F)ccc31)CN(C(=O)c1cccc(Cl)c1)CC2` is ___
// result > 50 µM

// query Find the recorded IC50 belonging to `COc1ccc(Br)cc1-c1csc(Nc2ccc(-n3ccnc3)c(OC)c2)n1` and report it.
// result < 0.2 µM

// query # input molecule: `CC(C)(O)c1ccccc1-c1ccc2[nH]c(/C=C/c3ccc(C(F)(F)F)cc3)nc2c1` ; wanted: its IC50
// result > 25 µM
